Target: GPIIb-IIIa (Homo sapiens, UniProt P05106+P08514)
Construct: Purified platelet GPIIb-IIIa receptor was prepared as described by Fitzgerald
Sequence (P08514 32-887 limits assumed): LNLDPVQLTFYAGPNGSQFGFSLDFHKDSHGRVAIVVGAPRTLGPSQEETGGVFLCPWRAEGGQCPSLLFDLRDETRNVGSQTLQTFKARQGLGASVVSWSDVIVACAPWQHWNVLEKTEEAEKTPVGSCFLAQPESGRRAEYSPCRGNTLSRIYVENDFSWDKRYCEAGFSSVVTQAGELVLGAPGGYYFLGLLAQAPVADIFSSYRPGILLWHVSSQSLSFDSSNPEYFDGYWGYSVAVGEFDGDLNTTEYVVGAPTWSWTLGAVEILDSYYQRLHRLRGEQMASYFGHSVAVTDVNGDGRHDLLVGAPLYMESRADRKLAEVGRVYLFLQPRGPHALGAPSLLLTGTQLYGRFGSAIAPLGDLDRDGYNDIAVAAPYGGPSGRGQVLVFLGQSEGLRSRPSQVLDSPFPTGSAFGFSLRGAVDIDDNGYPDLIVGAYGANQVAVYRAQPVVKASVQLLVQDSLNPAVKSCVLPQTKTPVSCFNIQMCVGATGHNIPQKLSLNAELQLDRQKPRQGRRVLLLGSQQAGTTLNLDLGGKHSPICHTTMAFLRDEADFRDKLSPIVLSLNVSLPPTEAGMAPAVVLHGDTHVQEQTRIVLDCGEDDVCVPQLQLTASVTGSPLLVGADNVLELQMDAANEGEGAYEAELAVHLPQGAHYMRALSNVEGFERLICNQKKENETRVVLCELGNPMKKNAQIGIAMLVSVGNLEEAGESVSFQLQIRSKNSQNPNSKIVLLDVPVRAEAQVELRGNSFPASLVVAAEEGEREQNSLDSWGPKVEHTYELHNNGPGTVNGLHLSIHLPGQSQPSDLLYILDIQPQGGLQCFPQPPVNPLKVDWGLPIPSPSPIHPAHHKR
Sequence (P05106 27-788): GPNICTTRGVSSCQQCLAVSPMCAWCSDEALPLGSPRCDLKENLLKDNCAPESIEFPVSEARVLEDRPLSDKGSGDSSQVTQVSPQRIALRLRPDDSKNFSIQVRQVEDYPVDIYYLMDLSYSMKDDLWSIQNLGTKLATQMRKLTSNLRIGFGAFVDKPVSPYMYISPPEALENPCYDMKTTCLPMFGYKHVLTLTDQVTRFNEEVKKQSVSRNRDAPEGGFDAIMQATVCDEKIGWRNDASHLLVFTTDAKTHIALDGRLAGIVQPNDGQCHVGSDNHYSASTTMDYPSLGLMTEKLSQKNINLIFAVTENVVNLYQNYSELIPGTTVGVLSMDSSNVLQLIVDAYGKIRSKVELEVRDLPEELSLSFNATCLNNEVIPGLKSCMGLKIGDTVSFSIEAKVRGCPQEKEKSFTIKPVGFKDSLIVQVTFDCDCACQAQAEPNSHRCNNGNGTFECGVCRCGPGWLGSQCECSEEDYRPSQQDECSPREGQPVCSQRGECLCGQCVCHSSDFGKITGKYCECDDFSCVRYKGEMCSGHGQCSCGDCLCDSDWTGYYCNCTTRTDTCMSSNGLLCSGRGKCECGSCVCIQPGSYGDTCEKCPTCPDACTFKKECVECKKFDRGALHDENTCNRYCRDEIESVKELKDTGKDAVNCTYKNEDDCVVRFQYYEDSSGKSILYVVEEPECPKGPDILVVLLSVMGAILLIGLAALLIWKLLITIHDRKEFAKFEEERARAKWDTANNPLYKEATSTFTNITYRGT
Assay: ELISA IIb-IIIa assay (fibrinogen binding to immobilized GPIIb-IIIa)
Conditions: purified platelet GPIIb-IIIa receptor coated on ELISA plates; biotin-labeled fibrinogen 10 nM, 3 hours at 25° C.
Where a name gives a salt, the structure may show the parent alone.
// boundary case: IC50 equal to 20 nM maps to not met; strictly smaller maps to met

Query: Report whether reported IC50 is lower than 20 nM (strictly) for CCOC(=O)CC1CCc2cc(NC(=O)c3ccc(C(=N)N)cc3)ccc2O1 (racemic) [Example 47, Hydrochloride]
Response: not met

Query: Report whether reported IC50 is lower than 20 nM (strictly) for O=C(O)CNC1CCc2cc(OCCCC3CCNCC3)ccc2C1 (centres unmarked)
Response: not met

Query: Report whether reported IC50 is lower than 20 nM (strictly) for N=C(N)c1ccc(C(=O)Nc2ccc3c(c2)CCC(CC(=O)O)=C3)cc1
Response: met

Query: Report whether reported IC50 is lower than 20 nM (strictly) for N=C(N)c1ccc(COc2ccc3cc(CC(=O)O)ccc3c2)cc1
Response: met

Query: Report whether reported IC50 is lower than 20 nM (strictly) for N=C(N)c1ccc(CNC(=O)c2ccc3c(c2)CCN(CC(=O)O)C3=O)cc1
Response: not met

* * *

Target: GPIIb-IIIa (Homo sapiens, UniProt P05106+P08514)
Construct: Purified platelet GPIIb-IIIa receptor was prepared as described by Fitzgerald
Sequence (P08514 32-887 limits assumed): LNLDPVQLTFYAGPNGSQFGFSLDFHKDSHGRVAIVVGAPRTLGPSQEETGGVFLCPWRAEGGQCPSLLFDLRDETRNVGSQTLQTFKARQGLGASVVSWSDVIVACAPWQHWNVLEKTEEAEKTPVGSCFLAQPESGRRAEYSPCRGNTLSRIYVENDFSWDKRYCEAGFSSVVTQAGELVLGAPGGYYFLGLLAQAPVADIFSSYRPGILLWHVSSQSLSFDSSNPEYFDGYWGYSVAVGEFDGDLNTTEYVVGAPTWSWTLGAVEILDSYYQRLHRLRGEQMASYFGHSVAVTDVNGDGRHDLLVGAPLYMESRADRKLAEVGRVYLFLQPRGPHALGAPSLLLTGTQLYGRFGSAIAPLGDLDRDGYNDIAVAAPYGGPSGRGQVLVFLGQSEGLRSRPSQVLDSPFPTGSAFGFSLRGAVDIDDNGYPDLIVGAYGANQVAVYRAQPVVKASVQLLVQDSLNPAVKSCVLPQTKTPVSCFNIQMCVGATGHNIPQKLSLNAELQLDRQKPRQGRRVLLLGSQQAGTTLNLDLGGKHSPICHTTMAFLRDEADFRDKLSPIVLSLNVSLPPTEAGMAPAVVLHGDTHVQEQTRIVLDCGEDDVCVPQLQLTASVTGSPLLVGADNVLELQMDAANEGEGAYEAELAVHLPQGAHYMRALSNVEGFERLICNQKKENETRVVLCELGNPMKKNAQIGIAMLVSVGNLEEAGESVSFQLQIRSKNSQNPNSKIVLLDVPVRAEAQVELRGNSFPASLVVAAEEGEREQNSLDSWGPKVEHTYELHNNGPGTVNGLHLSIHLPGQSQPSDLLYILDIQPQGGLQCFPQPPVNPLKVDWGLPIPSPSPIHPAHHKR
Sequence (P05106 27-788): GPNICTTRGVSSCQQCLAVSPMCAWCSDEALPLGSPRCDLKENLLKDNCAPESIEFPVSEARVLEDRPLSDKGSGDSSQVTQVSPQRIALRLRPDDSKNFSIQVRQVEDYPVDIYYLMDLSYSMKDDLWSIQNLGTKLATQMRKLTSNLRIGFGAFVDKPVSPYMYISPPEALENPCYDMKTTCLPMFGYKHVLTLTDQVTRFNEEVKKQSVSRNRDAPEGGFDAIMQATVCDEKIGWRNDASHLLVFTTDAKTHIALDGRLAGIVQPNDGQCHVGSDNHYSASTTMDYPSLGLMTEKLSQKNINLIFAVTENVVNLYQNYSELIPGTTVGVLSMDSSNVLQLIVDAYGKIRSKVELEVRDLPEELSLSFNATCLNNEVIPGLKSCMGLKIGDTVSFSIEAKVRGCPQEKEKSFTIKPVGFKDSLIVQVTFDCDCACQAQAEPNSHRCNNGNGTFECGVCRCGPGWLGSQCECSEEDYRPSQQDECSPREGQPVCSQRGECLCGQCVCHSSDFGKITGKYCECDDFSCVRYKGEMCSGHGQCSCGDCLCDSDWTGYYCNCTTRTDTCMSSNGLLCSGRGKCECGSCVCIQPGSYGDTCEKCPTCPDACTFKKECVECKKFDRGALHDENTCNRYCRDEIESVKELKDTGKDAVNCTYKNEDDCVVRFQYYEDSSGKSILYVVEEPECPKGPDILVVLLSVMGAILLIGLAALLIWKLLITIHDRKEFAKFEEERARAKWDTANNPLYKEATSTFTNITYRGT
Assay: ELISA IIb-IIIa assay (fibrinogen binding to immobilized GPIIb-IIIa)
Conditions: purified platelet GPIIb-IIIa receptor coated on ELISA plates; biotin-labeled fibrinogen 10 nM, 3 hours at 25° C.
Kindly state pIC50 for each of the entries shown.
Please treat pIC50 as minus the base-10 logarithm of the molar concentration.

Query: Quickly give me recorded pIC50 for CCCCC(CC(=O)O)N1CCc2cc(OCc3ccc(C(=N)N)cc3)ccc2C1=O (racemic)
Response: 7.40

Query: Quickly give me recorded pIC50 for N=C(N)c1ccc(COc2ccc3c(c2)CCN(C(=O)C(=O)O)C3)cc1
Response: 6.80

Query: Quickly give me recorded pIC50 for CC1(CCC(=O)O)CCc2cc(NC(=O)c3ccc(C(=N)N)cc3)ccc2O1 (racemic)
Response: 6.85

Query: Quickly give me recorded pIC50 for CCCNC(=N)c1ccc(C(=O)Nc2ccc3c(c2)CCC(CC(=O)O)O3)cc1 (racemic)
Response: 7.72

Query: Quickly give me recorded pIC50 for N=C(N)c1ccc(C(=O)Nc2ccc3c(c2)CCC(OCC(=O)O)C3)cc1 (stereo not shown)
Response: 7.82

Query: Quickly give me recorded pIC50 for N=C(N)c1ccc(C(=O)Nc2ccc3c(c2)CCC(CC(=O)O)C3)cc1 (stereo not shown)
Response: 8.30

Query: Quickly give me recorded pIC50 for CC(=O)N(CC(=O)O)C1CCc2cc(OCc3ccc(C(=N)N)cc3)ccc2C1 (stereo not shown)
Response: 6.96

Query: Quickly give me recorded pIC50 for CCOCCCC(CC(=O)O)N1CCc2cc(OCc3ccc(C(=N)N)cc3)ccc2C1=O (racemic)
Response: 7.21

Query: Quickly give me recorded pIC50 for N=C(N)c1ccc(COc2ccc3c(c2)CCN(C(CC(=O)O)c2ccccc2)C3=O)cc1 (racemic)
Response: 8.15

Query: Quickly give me recorded pIC50 for N=C(N)Nc1ccc(C(=O)Nc2ccc3c(c2)CCC(CC(=O)O)O3)cc1 (racemic)
Response: 6.74
